Protocol Description: cells
Assay type: functional, cell-based
Run Conditions: Homo sapiens, LoVo/DX, 72 h
pIC50: −log10 of the molar value.
Please note: rule met applies when pIC50 is 7 or greater, and rule not met applies otherwise.

Consider the following illustrative entries.
Smiles Str: COc1cc2c(c(OC)c1OC)-c1ccc(SC)c(=O)cc1[C@@H](NC(=O)c1ccccc1)CC2
Class Name: rule met
--
Smiles Str: COc1c(I)c2c(c(OC)c1OC)-c1ccc(SC)c(=O)cc1[C@@H](NC(=O)CCCCl)CC2
Class Name: rule not met
--
Smiles Str: COc1cc2c(c(OC)c1OC)-c1ccc(SC)c(=O)cc1[C@@H](NC(=O)C(C)C)CC2
Class Name: rule not met
--
Smiles Str: CCN(CC)C(=O)N[C@H]1CCc2c(I)c(OC)c(OC)c(OC)c2-c2ccc(SC)c(=O)cc21
Class Name: rule not met

// switching to the query compound
Record COc1c(I)c2c(c(OC)c1OC)-c1ccc(SC)c(=O)cc1[C@@H](N)CC2 ; criterion: pIC50 no lower than 7. Met?
rule not met

Entry source: ChEMBL document CHEMBL4680353
